Source of measurements: patent US9718813B2

Molecular target: FASN Keto-reductase Domain (hFASN enzyme, full length) (Homo sapiens (Human), UniProt P49327)
Sequence (P49327 whole entry, the tested form may be a part): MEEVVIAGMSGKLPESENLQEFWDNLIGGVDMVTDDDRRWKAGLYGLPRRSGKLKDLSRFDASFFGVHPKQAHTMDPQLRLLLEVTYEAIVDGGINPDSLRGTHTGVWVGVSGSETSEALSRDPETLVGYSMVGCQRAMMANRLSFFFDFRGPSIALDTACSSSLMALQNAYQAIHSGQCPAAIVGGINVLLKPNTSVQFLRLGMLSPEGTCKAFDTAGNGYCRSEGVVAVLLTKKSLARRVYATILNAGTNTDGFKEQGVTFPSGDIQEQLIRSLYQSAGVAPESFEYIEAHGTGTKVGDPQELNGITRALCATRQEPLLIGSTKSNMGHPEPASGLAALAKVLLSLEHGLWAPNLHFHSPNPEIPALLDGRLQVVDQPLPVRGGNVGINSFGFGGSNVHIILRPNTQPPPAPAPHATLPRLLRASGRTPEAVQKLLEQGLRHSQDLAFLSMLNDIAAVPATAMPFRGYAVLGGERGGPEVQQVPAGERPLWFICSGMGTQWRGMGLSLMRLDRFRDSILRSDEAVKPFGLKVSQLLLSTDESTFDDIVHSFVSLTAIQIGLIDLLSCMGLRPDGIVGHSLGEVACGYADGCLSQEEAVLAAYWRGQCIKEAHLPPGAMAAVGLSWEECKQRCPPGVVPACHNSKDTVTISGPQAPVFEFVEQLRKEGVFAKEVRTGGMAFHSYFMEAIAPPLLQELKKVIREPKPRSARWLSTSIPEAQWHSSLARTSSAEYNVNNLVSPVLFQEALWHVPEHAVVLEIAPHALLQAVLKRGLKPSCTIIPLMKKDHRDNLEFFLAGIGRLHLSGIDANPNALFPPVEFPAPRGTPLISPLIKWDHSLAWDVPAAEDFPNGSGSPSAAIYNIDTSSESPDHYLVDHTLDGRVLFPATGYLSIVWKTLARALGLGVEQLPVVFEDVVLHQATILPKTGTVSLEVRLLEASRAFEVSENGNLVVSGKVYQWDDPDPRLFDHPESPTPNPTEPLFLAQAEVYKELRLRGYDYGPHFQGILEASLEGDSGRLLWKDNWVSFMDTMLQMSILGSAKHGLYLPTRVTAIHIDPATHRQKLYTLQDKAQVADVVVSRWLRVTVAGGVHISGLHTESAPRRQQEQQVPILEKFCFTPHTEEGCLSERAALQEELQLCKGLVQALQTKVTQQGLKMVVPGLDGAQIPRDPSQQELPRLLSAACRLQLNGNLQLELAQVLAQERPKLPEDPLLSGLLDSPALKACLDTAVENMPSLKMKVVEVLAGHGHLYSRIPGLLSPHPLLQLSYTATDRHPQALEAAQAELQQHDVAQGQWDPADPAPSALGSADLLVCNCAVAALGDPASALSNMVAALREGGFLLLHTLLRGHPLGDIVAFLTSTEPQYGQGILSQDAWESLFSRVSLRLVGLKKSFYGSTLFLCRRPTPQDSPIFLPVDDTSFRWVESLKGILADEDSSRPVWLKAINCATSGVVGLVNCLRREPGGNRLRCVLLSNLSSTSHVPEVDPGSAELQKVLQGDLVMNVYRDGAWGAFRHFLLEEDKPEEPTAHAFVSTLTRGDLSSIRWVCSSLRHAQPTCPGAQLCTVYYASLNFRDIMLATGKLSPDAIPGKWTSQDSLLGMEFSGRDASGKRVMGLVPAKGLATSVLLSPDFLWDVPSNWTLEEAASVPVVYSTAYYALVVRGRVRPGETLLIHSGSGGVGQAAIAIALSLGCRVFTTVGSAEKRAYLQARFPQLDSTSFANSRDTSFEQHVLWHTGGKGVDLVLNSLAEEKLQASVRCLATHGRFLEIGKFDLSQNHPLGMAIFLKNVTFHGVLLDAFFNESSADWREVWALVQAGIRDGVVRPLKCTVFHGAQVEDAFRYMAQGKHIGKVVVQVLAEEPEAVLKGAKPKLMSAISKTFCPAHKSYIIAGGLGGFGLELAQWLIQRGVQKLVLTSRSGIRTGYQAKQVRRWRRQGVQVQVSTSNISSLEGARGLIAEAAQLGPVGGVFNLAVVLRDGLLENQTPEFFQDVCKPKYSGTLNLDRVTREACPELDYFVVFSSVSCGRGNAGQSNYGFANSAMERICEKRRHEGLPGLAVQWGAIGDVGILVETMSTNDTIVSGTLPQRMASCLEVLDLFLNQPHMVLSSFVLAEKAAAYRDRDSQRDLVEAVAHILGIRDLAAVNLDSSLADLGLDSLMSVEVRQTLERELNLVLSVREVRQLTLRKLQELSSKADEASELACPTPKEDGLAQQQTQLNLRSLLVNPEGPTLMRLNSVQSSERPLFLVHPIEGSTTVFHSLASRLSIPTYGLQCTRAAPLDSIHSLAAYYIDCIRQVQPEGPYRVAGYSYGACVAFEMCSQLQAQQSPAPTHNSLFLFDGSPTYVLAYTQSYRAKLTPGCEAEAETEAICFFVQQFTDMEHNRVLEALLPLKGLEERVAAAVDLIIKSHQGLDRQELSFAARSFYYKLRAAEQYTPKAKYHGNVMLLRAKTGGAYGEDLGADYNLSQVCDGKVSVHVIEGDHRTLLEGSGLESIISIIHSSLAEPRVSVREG
Test: Fatty Acid Synthase Keto-reductase Domain (FASN KR) Inhibition
Type: biochemical
Settings: NADPH oxidation at 340 nm, ethyl acetoacetate substrate
Measurement Type: FASN Keto-reductase Domain pIC50

CC1(C)N=C(c2ccc(-c3ccc4cccc(F)c4c3)cc2)N(CC2CN(C(=O)C3CC3)C2)C1=O
6.46
CC1(C)N=C(c2ccc(-c3c[nH]c4ccccc34)cc2F)N(CC2CN(C(=O)C3CC3)C2)C1=O
6.26
CC1(C)N=C(c2ccc(-c3ccc4occc4c3)cc2)N(C[C@@H]2CCN(C(=O)C3(F)CC3)C2)C1=O
6.22
CC1(C)N=C(c2ccc(-c3ccc(-c4ccncc4)cc3)cc2F)N(C[C@@H]2CCN(C(=O)C3CC3)C2)C1=O
6.90
Cc1cc(-c2ccc(-c3cnn(C)c3)cc2)ccc1C1=NC(C)(C)C(=O)N1C[C@@H]1CCN(C(=O)C2(C)CC2)C1
7.27
CC1(C)N=C(c2ccc(-c3ccc4cnccc4c3)cc2)N(C[C@@H]2CCN(C(=O)C3CC3)C2)C1=O
7.14
CC1(C)N=C(c2ccc(-c3ccc4cncnc4c3)cc2F)N(C[C@@H]2CCN(C(=O)C3CC3)C2)C1=O
6.65

###

Target: FASN Keto-reductase Domain (hFASN enzyme, full length) (Homo sapiens (Human), UniProt P49327)
Assay: Fatty Acid Synthase Keto-reductase Domain (FASN KR) Inhibition
Type: biochemical
Conditions: NADPH oxidation at 340 nm, ethyl acetoacetate substrate
Measurement Type: FASN Keto-reductase Domain pIC50

CC1(C)N=C(c2ccc(-c3ccc4cccnc4c3)cc2F)N(CC2CN(C(=O)C3CC3)C2)C1=O
6.81
Cn1cc(-c2ccc(-c3ccc(C4=NC(C)(C)C(=O)N4CC4CN(C(=O)C5(O)CC5)C4)c(F)c3)cc2)cn1
6.10
Cn1ncc2cc(-c3ccc(C4=NC(C)(C)C(=O)N4C[C@@H]4CCN(C(=O)C5(C)CC5)C4)c(F)c3)ccc21
7.17
Cc1cc(-c2ccc3c(c2)ncn3C)ccc1C1=NC(C)(C)C(=O)N1C[C@@H]1CCN(C(=O)C2(C)CC2)C1
6.80
Cc1cc(-c2ccc3c(c2)ncn3C)ccc1C1=NC(C)(C)C(=O)N1CC1CN(C(=O)C2(C)CC2)C1
6.76
Cn1cc(-c2ccc(-c3ccc(C4=NC(C)(C)C(=O)N4C[C@@H]4CCN(C(=O)C5CC5)C4)c(F)c3)cc2)cn1
6.95
Cc1cc(-c2ccc3cc(F)ccc3c2)ccc1C1=NC(C)(C)C(=O)N1C[C@@H]1CCN(C(=O)C2(C)CC2)C1
7.60
CC1(C)N=C(c2ccc(-c3ccc4[nH]ccc4c3)cc2)N(C[C@@H]2CCN(C(=O)C3CC3)C2)C1=O
6.86
CC1(C)N=C(c2ccc(-c3cccc4ncccc34)cc2F)N(C[C@@H]2CCN(C(=O)C3CC3)C2)C1=O
6.52
CC1(C)N=C(c2ccc(-c3ccc4cncnc4c3)cc2)N(C[C@@H]2CCN(C(=O)C3CC3)C2)C1=O
6.32
CC1(C)N=C(c2ccc(-c3nc4ccccc4o3)cc2)N(C[C@@H]2CCN(C(=O)C3CC3)C2)C1=O
5.41
CC1(C)N=C(c2ccc(-c3cccc4ncccc34)cc2)N(C[C@@H]2CCN(C(=O)C3CC3)C2)C1=O
6.33
Cc1cc(-c2ccc3c(cnn3C)c2)ccc1C1=NC(C)(C)C(=O)N1C[C@@H]1CCN(C(=O)C2(C)CC2)C1
6.96
CC1(C)N=C(c2ccc(-c3ccc4cnccc4c3)cc2F)N(C[C@@H]2CCN(C(=O)C3CC3)C2)C1=O
7.32
CC1(C)N=C(c2ccc(-c3ccc4cc(F)ccc4c3)cc2)N(C[C@@H]2CCN(C(=O)C3CC3)C2)C1=O
7.17
CC1(C)N=C(c2ccc(-c3ccc4cnccc4c3)cc2F)N(CC2CN(C(=O)C3CC3)C2)C1=O
6.33
CC1(C(=O)N2CC(CN3C(=O)C(C)(C)N=C3c3ccc(-c4ccc5cc(F)ccc5c4)cc3F)C2)CC1
7.23
Cn1ncc2cc(-c3ccc(C4=NC(C)(C)C(=O)N4CC4CN(C(=O)C5CC5)C4)c(F)c3)ccc21
5.86
Cc1cc(-c2ccc(-c3cnn(C)c3)cc2)ccc1C1=NC(C)(C)C(=O)N1CC1CN(C(=O)C2(C)CC2)C1
7.06
Cn1ncc2cc(-c3ccc(C4=NC(C)(C)C(=O)N4C[C@@H]4CCN(C(=O)C5CC5)C4)cc3)ccc21
6.15
Cn1cc(-c2ccc(-c3ccc(C4=NC(C)(C)C(=O)N4CC4CN(C(=O)C5CC5)C4)c(F)c3)cc2)cn1
6.38

###

Target: hFASN enzyme (full length) (Homo sapiens (Human))
Sequence (P49327 whole entry): as the sequence (P49327 whole entry, the tested form may be a part) above
Experiment: Fatty Acid Synthase (FASN) Inhibition Scintillation Proximity Assay
Assay type: biochemical
Settings: 3H-acetyl-CoA and malonyl-CoA substrates, SPA, mean if tested more than once
Measurement Type: Human FASN pIC50

Cn1ncc2cc(-c3ccc(C4=NC(C)(C)C(=O)N4C[C@@H]4CCN(C(=O)C5(O)CC5)C4)c(F)c3)ccc21 [Compound 76]
7.07
CC1(C)N=C(c2ccc(-c3ccc(-c4ccncc4)cc3)cc2)N(C[C@@H]2CCN(C(=O)C3CC3)C2)C1=O [Compound 15]
7.40
Cn1cc(-c2ccc(-c3ccc(C4=NC(C)(C)C(=O)N4C[C@@H]4CCN(C(=O)C5CC5)C4)cc3)cc2)cn1 [Compound 16]
6.99

###

Biological target: hFASN enzyme (full length) (Homo sapiens (Human))
Test: Fatty Acid Synthase (FASN) Inhibition Scintillation Proximity Assay
Type: biochemical
Settings: 3H-acetyl-CoA and malonyl-CoA substrates, SPA, mean if tested more than once
Measurement Type: Human FASN pIC50

Cn1cc(-c2ccc(-c3ccc(C4=NC(C)(C)C(=O)N4C[C@@H]4CCN(C(=O)C5CC5)C4)c(F)c3)cc2)cn1 [Compound 45]
7.20
CC1(C)N=C(c2ccc(-c3ccc4occc4c3)cc2)N(C[C@@H]2CCN(C(=O)C3CC3)C2)C1=O [Compound 3]
7.09
Cc1cc(-c2ccc3c(cnn3C)c2)ccc1C1=NC(C)(C)C(=O)N1CC1CN(C(=O)C2(C)CC2)C1 [Compound 77]
6.82
